biological target: von Hippel-Lindau disease tumor suppressor (Homo sapiens)
Sequence (P40337 whole entry): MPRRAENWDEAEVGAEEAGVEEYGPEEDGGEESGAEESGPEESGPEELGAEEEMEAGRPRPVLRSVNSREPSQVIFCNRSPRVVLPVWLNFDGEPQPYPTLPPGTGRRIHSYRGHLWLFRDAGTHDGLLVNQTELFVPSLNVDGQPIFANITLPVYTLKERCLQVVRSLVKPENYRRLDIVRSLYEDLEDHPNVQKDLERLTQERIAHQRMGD
pIC50: −log10 of the molar value.
Quantity measured: pIC50

GET /values?readout=pIC50&item= `COc1cc(N2CCC(OCC(=O)N[C@H](C(=O)N3C[C@H](O)C[C@H]3C(=O)N[C@@H](C)c3ccc(-c4scnc4C)cc3)C(C)(C)C)CC2)ccc1NC(=O)c1cccc(-c2ccn[nH]2)n1` 5.97

GET /values?readout=pIC50&item= `COc1cc(N2CCN(CCC(=O)N[C@H](C(=O)N3C[C@H](O)C[C@H]3C(=O)NCc3ccc(-c4scnc4C)cc3)C(C)(C)C)CC2)ccc1NC(=O)c1cccc(-c2cc[nH]n2)n1` 5.78

---

molecular target: Interleukin-1 receptor-associated kinase 4 (Homo sapiens); assay: Inhibition of full length human N-terminal GST-fusion tagged IRAK4 expressed in baculovirus expression system using FAM-labelled peptide as substrate preincubated for 10 mins followed by substrate addition and further incubated for 1 hr in presence of ATP at Km concentration by caliper mobility shift assay
Sequence (Q9NWZ3 whole entry, the tested form may be a part): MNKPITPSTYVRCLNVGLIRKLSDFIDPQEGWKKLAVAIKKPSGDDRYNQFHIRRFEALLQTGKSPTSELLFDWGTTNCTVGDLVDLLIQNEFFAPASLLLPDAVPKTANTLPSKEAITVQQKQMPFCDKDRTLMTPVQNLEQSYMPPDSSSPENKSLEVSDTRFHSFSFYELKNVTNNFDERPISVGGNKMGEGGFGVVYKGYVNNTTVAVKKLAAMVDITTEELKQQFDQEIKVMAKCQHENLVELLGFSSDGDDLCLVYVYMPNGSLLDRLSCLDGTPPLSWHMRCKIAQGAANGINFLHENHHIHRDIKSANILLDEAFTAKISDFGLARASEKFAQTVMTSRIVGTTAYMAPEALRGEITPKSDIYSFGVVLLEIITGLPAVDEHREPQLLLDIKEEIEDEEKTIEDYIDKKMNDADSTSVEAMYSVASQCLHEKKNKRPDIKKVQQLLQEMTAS
Quantity measured: IC50 (nM)

GET /values?readout=IC50&item= `COc1cc(N2CCN(CCC(=O)N[C@H](C(=O)N3C[C@H](O)C[C@H]3C(=O)NCc3ccc(-c4scnc4C)cc3)C(C)(C)C)CC2)ccc1NC(=O)c1cccc(-c2cc[nH]n2)n1` 368

GET /values?readout=IC50&item= `COc1cc(N2CCC(OCC(=O)N[C@H](C(=O)N3C[C@@H](O)C[C@H]3C(=O)N[C@@H](C)c3ccc(-c4scnc4C)cc3)C(C)(C)C)CC2)ccc1NC(=O)c1cccc(-c2ccn[nH]2)n1` 320

GET /values?readout=IC50&item= `COc1cc(N2CCOCC2)ccc1NC(=O)c1cccc(-c2ccn[nH]2)n1` 24

I: COc1cc(N2CCC(OCC(=O)N[C@H](C(=O)N3C[C@H](O)C[C@H]3C(=O)NCc3ccc(-c4scnc4C)cc3)C(C)(C)C)CC2)ccc1NC(=O)c1cccc(-c2ccn[nH]2)n1
II: COc1cc(N2CCC(OCC(=O)N[C@H](C(=O)N3C[C@H](O)C[C@H]3C(=O)N[C@@H](C)c3ccc(-c4scnc4C)cc3)C(C)(C)C)CC2)ccc1NC(=O)c1cccc(-c2ccn[nH]2)n1
Endpoint returns whichever of I and II has the numerically higher IC50. # answer = label of selected item II

---

molecular target: Interleukin-1 receptor-associated kinase 1 (Homo sapiens, UniProt P51617); assay: Inhibition of truncated human N-terminal GST-fusion tagged IRAK1 (194 to 712 residues) expressed in baculovirus expression system using FAM-labelled peptide as substrate preincubated for 10 mins followed by substrate addition and further incubated for 1 hr in presence of ATP at Km concentration by caliper mobility shift assay
Quantity measured: IC50 (nM)

Solved cases below.
GET /values?readout=IC50&item= `COc1cc(N2CCC(OCC(=O)N[C@H](C(=O)N3C[C@H](O)C[C@H]3C(=O)NCc3ccc(-c4scnc4C)cc3)C(C)(C)C)CC2)ccc1NC(=O)c1cccc(-c2ccn[nH]2)n1` 60

GET /values?readout=IC50&item= `COc1cc(N2CCN(CCC(=O)N[C@H](C(=O)N3C[C@H](O)C[C@H]3C(=O)NCc3ccc(-c4scnc4C)cc3)C(C)(C)C)CC2)ccc1NC(=O)c1cccc(-c2cc[nH]n2)n1` 80

GET /values?readout=IC50&item= `COc1cc(N2CCC(OCC(=O)N[C@H](C(=O)N3C[C@H](O)C[C@H]3C(=O)N[C@@H](C)c3ccc(-c4scnc4C)cc3)C(C)(C)C)CC2)ccc1NC(=O)c1cccc(-c2ccn[nH]2)n1` 72

a: COc1cc(N2CCC(OCC(=O)N[C@H](C(=O)N3C[C@@H](O)C[C@H]3C(=O)N[C@@H](C)c3ccc(-c4scnc4C)cc3)C(C)(C)C)CC2)ccc1NC(=O)c1cccc(-c2ccn[nH]2)n1
b: COc1cc(N2CCOCC2)ccc1NC(=O)c1cccc(-c2ccn[nH]2)n1
Field: lower recorded IC50 (choose a or b ) # answer = label of selected item b

---

target: von Hippel-Lindau disease tumor suppressor/Interleukin-1 receptor-associated kinase 1 (Homo sapiens, UniProt P51617+P40337); assay: Protac activity at IRAK1/VHL E3 ligase in HEK293T cells assessed as induction of IRAK1 degradation at 10 uM measured after 24 hrs by Western blot analysis relative to control; assay type: cell-based
Sequence (P40337 whole entry, looked up): as the sequence (P40337 whole entry) above
Sequence (P51617 whole entry, looked up): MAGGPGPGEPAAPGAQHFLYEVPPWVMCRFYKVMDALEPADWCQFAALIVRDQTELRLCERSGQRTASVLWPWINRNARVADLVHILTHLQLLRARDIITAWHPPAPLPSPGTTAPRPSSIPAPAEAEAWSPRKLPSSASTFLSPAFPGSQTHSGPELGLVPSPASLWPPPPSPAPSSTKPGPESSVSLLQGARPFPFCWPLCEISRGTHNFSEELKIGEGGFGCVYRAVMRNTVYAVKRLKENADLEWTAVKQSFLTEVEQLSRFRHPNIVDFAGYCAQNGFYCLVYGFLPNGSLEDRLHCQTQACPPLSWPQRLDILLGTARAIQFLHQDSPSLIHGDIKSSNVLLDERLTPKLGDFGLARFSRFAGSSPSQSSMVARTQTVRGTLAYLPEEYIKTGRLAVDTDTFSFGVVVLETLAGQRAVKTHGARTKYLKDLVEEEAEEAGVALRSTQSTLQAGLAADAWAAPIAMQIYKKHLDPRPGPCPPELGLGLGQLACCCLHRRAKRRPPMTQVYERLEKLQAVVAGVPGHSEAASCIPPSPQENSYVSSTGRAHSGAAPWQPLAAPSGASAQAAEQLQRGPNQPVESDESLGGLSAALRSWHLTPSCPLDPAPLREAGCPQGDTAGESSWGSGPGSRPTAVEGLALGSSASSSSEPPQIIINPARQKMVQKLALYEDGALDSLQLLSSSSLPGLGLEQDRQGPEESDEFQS
Quantity measured: %max (%)

Solved cases below.
GET /values?readout=%max&item= `COc1cc(N2CCC(OCC(=O)N[C@H](C(=O)N3C[C@H](O)C[C@H]3C(=O)N[C@@H](C)c3ccc(-c4scnc4C)cc3)C(C)(C)C)CC2)ccc1NC(=O)c1cccc(-c2ccn[nH]2)n1` 96

GET /values?readout=%max&item= `COc1cc(N2CCC(OCC(=O)N[C@H](C(=O)N3C[C@H](O)C[C@H]3C(=O)NCc3ccc(-c4scnc4C)cc3)C(C)(C)C)CC2)ccc1NC(=O)c1cccc(-c2ccn[nH]2)n1` 95

P: COc1cc(N2CCN(CCC(=O)N[C@H](C(=O)N3C[C@H](O)C[C@H]3C(=O)NCc3ccc(-c4scnc4C)cc3)C(C)(C)C)CC2)ccc1NC(=O)c1cccc(-c2cc[nH]n2)n1
Q: COc1cc(N2CCC(OCC(=O)N[C@H](C(=O)N3C[C@@H](O)C[C@H]3C(=O)N[C@@H](C)c3ccc(-c4scnc4C)cc3)C(C)(C)C)CC2)ccc1NC(=O)c1cccc(-c2ccn[nH]2)n1
Endpoint returns whichever of P and Q has the numerically higher %max. # answer = label of selected item P
(P: 88%, Q: 18%)
